Provenance of the data: paper PMC12040169

Reported viability at 28.5 h, 10 µM values for a set of compounds
PROCEDURE_TEXT: in vitro
SETTINGS: human, hela cells, % viability

COMPOUND | viability at 28.5 h, 10 µM [%]
CC(C)C(=O)N1CCC(c2nc3ccccn3c2NC(C)(C)C)CC1 | 95
C#CCOc1cc(Br)c(/C=C(/C#N)c2ccc([N+](=O)[O-])cc2)cc1OCC | 104
CSCCCNC(=O)N(C)C1CCN(C)C1 (centres unmarked) | 104
CCCS(=O)(=O)n1ccn(-c2cccc(C(F)(F)F)c2)c1=O | 88.3
O=C(c1ccco1)N1CCN(c2cc(-c3cc4ccccc4o3)ncn2)CC1 | 102
OCc1nnc2c3ccccc3c(-c3ccccc3)nn12 | 94.2
CC(C)=NNC(=O)Nc1nonc1N | 99.2
O=c1c2ccccc2nc2n1CCN(Cc1ccccc1)CC2 | 90.2
CCN(CCO)C(=O)NC1CCCc2c1cnn2Cc1ccccc1 (centres unmarked) | 91.5
CSc1ccc(NS(=O)(=O)c2ccc(NC(C)=O)c(Cl)c2)cc1 | 108
CCOc1ccc(-c2cn(S(=O)(=O)c3cccc4nsnc34)nc2N)cc1 | 102
Cc1cc2c(=O)n(Cc3ccco3)c(SCc3cc(O)[nH]n3)nc2s1 | 94.3
Cc1sc(NC(=O)CC(C)(C)CC(=O)Nc2sc(C)c(C)c2C(=O)O)c(C(=O)O)c1C | 98.7
OCc1cccc(-c2nccnc2NCc2ccc(OC(F)(F)F)cc2)c1 | 108
O=[N+]([O-])c1cccc(S(=O)(=O)NCCCn2ccnc2)c1 | 91.1
CC(=O)N[C@@H](CC[S+](C)[O-])C(=O)N1CCC2(C/C=C/C[C@@H]3COCC[C@@H]3NC(=O)[C@@H](CC(C)C)NC2=O)CC1 (some centres unmarked) | 105
O=C(O)COc1cccc(NC(=O)c2ccccc2)c1 | 88.3
CN1CCCN(c2nccnc2-c2ccccc2CO)CC1 | 106
c1cnn(CCCNc2nc3nonc3nc2N2CCCCCC2)c1 | 110
O=C(CCC1COc2ccccc2O1)Nc1ccc(C(=O)O)cc1 (centres unmarked) | 89.7
O=[N+]([O-])c1cccc(CN2CCC(N3CCN(Cc4ccccc4)CC3)CC2)c1 [CBK264609G] | 93.5
Cc1ccc2nsnc2c1NC(=O)Cc1cccc2ccccc12 | 98.8
Clc1ccc(-c2cncc(NCCc3ccncc3)n2)cc1 | 99.5
NC(=O)C1CCN(C(=S)NC2CC3C=CC2C3)CC1 (centres unmarked) | 97.4
CSc1ccc(-c2nc(C)c(C(C)=O)n2O)cc1 | 92.5
CC(C)C[C@@H]1N[C@H](C(=O)NC2CC2)Cc2cn(Cc3nccn3C)c3cccc1c23 | 108
CCCN1CCN(c2ncnc3scc(C4COc5ccccc5O4)c23)CC1 (centres unmarked) | 102
O=C(Cn1cc(C(=S)N2CCOCC2)c2ccccc21)Nc1ccc2c(c1)OCO2 | 94.6
Cc1nc2c(OCc3ccc(F)c(F)c3)cccn2c1N(C)C(=O)CCC1CCCC1 | 99.3
O=C(Nc1ccc2n(c1=O)C[C@H]1C[C@@H]2CN(C(=O)COc2ccccc2)C1)C1CCCCC1 | 91.9
OC(COc1cccc2c1CCCC2)CN1CCC(O)(c2ccc(Br)cc2)CC1 (centres unmarked) | 72
O=C(COc1cccnc1)N1CCCc2ccccc21 | 92.5
CC(C)(c1ccccc1)c1ccc(OCCNCCN)cc1 | 103
O=C(NCc1ccc(N2CCCC2=O)cc1)c1cc(Br)ccc1O | 91.2
Fc1ccc(CSc2nnc(-c3ccccn3)[nH]2)cc1 | 85.8
Cc1nc2ccc(C(=O)NC(C)Cc3cccs3)cc2[nH]1 (centres unmarked) | 86.8
c1ccc(-c2nc3ccc(Cc4ccc5nc(-c6ccccn6)c(-c6ccccn6)nc5c4)cc3nc2-c2ccccn2)nc1 | 101
COc1ccc(CC(=O)NNC(=O)Nc2ccc(Cl)c(Cl)c2)cc1 | 92.6
